Measurement Notes: MRT (infinity) in Sprague-Dawley rat at 10 mg/kg, iv measured for 1 to 1440 mins by LC-MS/MS analysis
Format: ADME, organism-based
Applied Conditions: in vivo, time 1-1440 min
Attribute Measured: MRT inf (h)
The reply should contain only the number, in h.

Item Nc1nonc1-c1nc2ccccc2n1CC(=O)Nc1ccc(CCN2CCOCC2)cc1 has what recorded MRT inf?
2.57

====

Exercise: state measured solubility at 24 h for each of the molecules provided.
Measurement Notes: Solubility of compound in FaSSIF incubated for 24 hrs by HPLC analysis
Assay type: ADME
Dear colleague, please return just the value in µM, with no unit written.

// solubility at 24 h lookup, key: Nc1nonc1-c1nc2ccccc2n1CC(=O)Nc1ccc(N2CCOCC2)cc1
861

Data request, read-out solubility at 24 h, for Nc1nonc1-c1nc2ccccc2n1CC(=O)Nc1ccc(CCN2CCOCC2)cc1
3280

Quick one: solubility at 24 h of Nc1nonc1-c1nc2ccccc2n1CC(=O)Nc1cncc(Cl)c1 ?
462

Any idea what solubility at 24 h was measured for Nc1nonc1-c1nc2ccccc2n1CC(=O)Nc1cncc(C(F)(F)F)c1 ?
660

Item CN1CCN(C(=O)Cc2cccc(NC(=O)Cn3c(-c4nonc4N)nc4ccccc43)c2)CC1 has what recorded solubility at 24 h?
1330

====

Measurement Notes: Solubility of compound in FaSSIF incubated for 24 hrs by HPLC analysis
Type: ADME
Attribute Measured: solubility at 24 h (µM)
Just the number in µM, nothing appended.

Name the reported solubility at 24 h value associated with the compound Nc1nonc1-c1nc2ccccc2n1CC(=O)Nc1cccnc1
373

Looking for the measured solubility at 24 h of Nc1nonc1-c1nc2ccccc2n1CC(=O)Nc1ccccc1N1CCOCC1 , can you help?
536

# lookup: solubility at 24 h of Nc1nonc1-c1nc2ccccc2n1CC(=O)Nc1cnc2ccccc2c1
231

# query: solubility at 24 h of entry CN1CCN(C(=O)Cc2ccc(NC(=O)Cn3c(-c4nonc4N)nc4ccccc43)cc2)CC1
1770

What solubility at 24 h value was documented for this compound, CN1CCN(c2ccc(NC(=O)Cn3c(-c4nonc4N)nc4ccccc43)cc2)CC1 ?
1360

I am curious: what solubility at 24 h value has been reported for Nc1nonc1-c1nc2ccccc2n1CC(=O)Nc1cncc(Br)c1 ?
476

====

Measurement Notes: Cmax in brain of ICR mouse at 10 mg/kg, po measured for 10 to 480 mins by spectroscopy
Format: ADME, organism-based
Applied Conditions: time 10-480 min
Attribute Measured: Cmax (ng/mL)
Entry rule: numbers only, all in ng/mL.

Fill in: Cmax of Nc1nonc1-c1nc2ccccc2n1CC(=O)Nc1ccc(CCN2CCOCC2)cc1 is ___
209

====

Measurement Notes: Metabolic stability in human liver microsomes assessed as compound metabolism at 2 uM measured for 60 mins by LC-MS/MS analysis
Type: ADME, Microsome
Applied Conditions: read-out: Drug metabolism
Attribute Measured: metabolised at 1 h, 2 µM

What metabolised at 1 h, 2 µM value was documented for this compound, CN1CCN(c2cccc(NC(=O)Cn3c(-c4nonc4N)nc4ccccc43)c2)CC1 ?
< 15%

Which metabolised at 1 h, 2 µM is listed for Nc1nonc1-c1nc2ccccc2n1CC(=O)Nc1ccc(CN2CCOCC2)cc1 ?
< 15%

Need metabolised at 1 h, 2 µM, item Nc1nonc1-c1nc2ccccc2n1CC(=O)Nc1ccc(CCN2CCOCC2)cc1
< 15%
